Test: AUC in cannulated Sprague-Dawley rat at 6 mg/kg, po administered via gastric gavage by LC-MS/MS analysis
Format: ADME, organism-based
Conditions: in vivo
Experimental Endpoint: AUC (µM·h)

I = CCN(c1cc2oc(-c3ccc(F)cc3)c(C(=O)NC)c2cc1-c1ccc(OC)c(C(=O)NC2(c3ncccn3)CC2)c1)S(C)(=O)=O
II = CCNc1cc2oc(-c3ccc(F)cc3)c(C(=O)NC)c2cc1-c1ccc(OC)c(C(=O)NC2(c3ncccn3)CC2)c1
Query string: Parameter metric = AUC. Return the lower-valued option from I and II . When you have decided, please share the label of that item.
Result string: I

====

Test: Drug level in cannulated Sprague-Dawley rat liver at 6 mg/kg, po administered via gastric gavage measured after 5 hrs by LC-MS/MS analysis
Assay type: ADME, organism-based
Conditions: read-out: Drug uptake
Experimental Endpoint: concentration at 5 h (µM)

CCNc1cc2oc(-c3ccc(F)cc3)c(C(=O)NC)c2cc1-c1ccc(OC)c(C(=O)NC2(c3ncccn3)CC2)c1 ... 5.26

P = CCN(c1cc2oc(-c3ccc(F)cc3)c(C(=O)NC)c2cc1-c1ccc(OC)c(C(=O)NC2(c3ncccn3)CC2)c1)S(C)(=O)=O
Q = CCN(c1cc2oc(-c3ccc(F)cc3)c(C(=O)NC)c2cc1-c1cc(Cl)c(OC)c(C(=O)NC2(c3ncccn3)CC2)c1)S(C)(=O)=O
Query string: # returns the entry with the larger concentration at 5 h; inputs P and Q When you have decided, please share the label of that item.
Result string: Q
(Q: 7.18 µM, P: 1.18 µM)

====

Assay: Permeability of the compound at pH 7.4 by PAMPA
Format: ADME
Details: read-out: permeability
Experimental Endpoint: Papp (×10⁻⁶ cm/s)

Guide cases for Papp, answers given:
CCN(C(=O)C(F)(F)F)c1cc2oc(-c3ccc(F)cc3)c(C(=O)NC)c2cc1-c1ccc(OC)c(C(=O)NC2(c3ncccn3)CC2)c1 ... 83.5
CCN(C(=O)OC)c1cc2oc(-c3ccc(F)cc3)c(C(=O)NC)c2cc1-c1ccc(OC)c(C(=O)NC2(c3ncccn3)CC2)c1 ... 66
CCN(c1cc2oc(-c3ccc(F)cc3)c(C(=O)NC)c2cc1-c1ccc(OC)c(C(=O)NC2(c3ncccn3)CC2)c1)S(C)(=O)=O ... 48.7
CCN(C(C)=O)c1cc2oc(-c3ccc(F)cc3)c(C(=O)NC)c2cc1-c1ccc(OC)c(C(=O)NC2(c3ncccn3)CC2)c1 ... 46.6
CCN(c1cc2oc(-c3ccc(F)cc3)c(C(=O)NC)c2cc1-c1cc(Cl)c(OC)c(C(=O)NC2(c3ncccn3)CC2)c1)S(C)(=O)=O ... 82.1

a = CCN(c1cc2oc(-c3ccc(F)cc3)c(C(=O)NC)c2cc1-c1cc(F)c(OC)c(C(=O)NC2(c3ncccn3)CC2)c1)S(C)(=O)=O
b = CCN(c1cc2oc(-c3ccc(F)cc3)c(C(=O)NC)c2cc1-c1cc(C)c(OC)c(C(=O)NC2(c3ncccn3)CC2)c1)S(C)(=O)=O
Query string: # returns the entry with the larger Papp; inputs a and b When you have decided, please share the label of that item.
Result string: a

====

Assay: Cmax in cannulated Sprague-Dawley rat at 6 mg/kg, po administered via gastric gavage by LC-MS/MS analysis
Format: ADME, organism-based
Parameters: dose 6 mg/kg, route oral
Details: in vivo
Experimental Endpoint: Cmax (nM)

1 = CCNc1cc2oc(-c3ccc(F)cc3)c(C(=O)NC)c2cc1-c1ccc(OC)c(C(=O)NC2(c3ncccn3)CC2)c1
2 = CCN(c1cc2oc(-c3ccc(F)cc3)c(C(=O)NC)c2cc1-c1ccc(OC)c(C(=O)NC2(c3ncccn3)CC2)c1)S(C)(=O)=O
Query string: # returns the entry with the larger Cmax; inputs 1 and 2 When you have decided, please share the label of that item.
Result string: 1
(1: 776 nM, 2: 223 nM)

Data provenance is ChEMBL document CHEMBL4325928.
